Recorded pKi values for a group of compounds are listed next.
# study-target: Adenosine receptor A2a (Rattus norvegicus, UniProt P30543)
# Sequence (P30543 whole entry): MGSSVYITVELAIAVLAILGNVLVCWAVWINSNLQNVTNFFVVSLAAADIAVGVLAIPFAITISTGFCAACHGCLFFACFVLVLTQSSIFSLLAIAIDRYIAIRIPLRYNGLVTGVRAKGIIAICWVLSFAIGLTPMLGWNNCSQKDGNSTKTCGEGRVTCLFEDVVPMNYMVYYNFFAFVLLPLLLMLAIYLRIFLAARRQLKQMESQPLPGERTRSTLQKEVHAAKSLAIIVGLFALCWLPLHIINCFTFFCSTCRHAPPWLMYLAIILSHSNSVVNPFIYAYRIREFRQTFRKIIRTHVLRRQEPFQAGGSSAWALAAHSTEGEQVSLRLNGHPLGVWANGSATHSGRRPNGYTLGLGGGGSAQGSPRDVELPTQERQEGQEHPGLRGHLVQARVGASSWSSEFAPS
# method-notes: Displacement of [3H]-CGS- 21680 binding to Adenosine A2A receptor in rat striatal membranes
# Assay type: cell membranes, Membrane
# particulars: read-out: Ki
The quantity pKi is defined as the negative base-10 logarithm of the molar concentration.

CCCCC1=C(C(=O)OCC)C(C)/C(=C(/O)OCC)C(C)=N1 (stereo unspecified)
4.42

Give the reported pKi for this compound. CCO/C(O)=C1\C(C)=NC(C)=C(C(=O)OC)C1C (stereo in doubt; 29)
5.05

Give the reported pKi for this compound. CCOC(=O)C1=C(c2ccccc2)N=C(C)/C(=C(\O)OCC)C1C (stereo in doubt; 30)
4.55

Give the reported pKi for this compound. CCOC(=O)C1=C(C)NC(C)=C(C(=O)OC)C1/C=C/c1ccccc1 (stereo unspecified)
4.31

Give the reported pKi for this compound. CCOC(=O)C1=C(c2ccccc2)N=C(C)/C(=C(/O)OCC)C1/C=C/c1ccccc1 (stereo unspecified)
5.32

Give the reported pKi for this compound. CCOC(=O)C1=C(C)NC(C)=C(C(=O)OC)C1c1ccccc1 (stereo unspecified)
5.56

Give the reported pKi for this compound. CCO/C(O)=C1/C(C)=NC(C)=C(C(=O)OCCSc2ccccc2)C1C (stereo unspecified)
5.15

Give the reported pKi for this compound. CCO/C(O)=C1\C(C)=NC(C)=C(C(=O)OC)C1c1ccccc1C(F)(F)F (stereo unspecified)
4.68

Give the reported pKi for this compound. CO/C(O)=C1/C(C)=NC(C)=C(C(=O)OCc2ccccc2)C1C (stereo unspecified)
5.01

Give the reported pKi for this compound. CCOC(=O)C1=C(c2ccccc2)N=C(C)/C(=C(\O)OCC)C1C (stereo in doubt; 27)
4.44

Give the reported pKi for this compound. CCO/C(O)=C1\C(C)=NC(C)=C(C(=O)OC)C1CC(C)CCC=C(C)C (stereo unspecified)
4.64

Give the reported pKi for this compound. CCCC1C(C(=O)OCC)=C(C)N=C(C)/C1=C(\O)OC (stereo unspecified)
4.94

These data points were gathered from ChEMBL document CHEMBL1129250.
